Below, each entry is listed alongside its reported IC50.
# Experimental system: T1, human α4β7 integrin on cells (human, UniProt P13612 34-1032; P26010 20-798)
# T1 construct: whole, on cells; also called α4β7 cell (Hu); RPMI8866 cells
# Assay: RPMI8866 cell adhesion to MAdCAM-1
Bridge positions count the residues as written; N and C are the ends. Square brackets hold non-standard residues; d marks the D form. Ends that are not written are not given here. * marks the point of attachment. Phe(4-tBu) = CC(C)(C)c1ccc(C[C@H](N)C(=O)O)cc1; NMeR = CN[C@@H](CCCNC(=N)N)C(=O)O; Palmitoyl = CCCCCCCCCCCCCCCC(=O)*; NMeE = CN[C@@H](CCC(=O)O)C(=O)O; β3hE = N[C@@H](CCC(=O)O)CC(=O)O; Pen = CC(C)(S)[C@H](N)C(=O)O
Quantity: IC50

Binder: Ac-[Pen][NMeR]SDTL[Pen]W[NMeE][dK]-NH2 (disulfide 1-7; not fully specified (residue 10); printed as (Ac Pen N-Me-R S D T L Pen W N-Me-E k NH2)2 DIG, disulfide Pen-Pen; also: dimer, two subunits joined by DIG linker) [SEQ ID NO: 31]
Result: > 50 nM
--
Binder: Ac-[Pen][NMeR]SDTL[Pen][Phe(4-tBu)][β3hE][dK](Palmitoyl) (disulfide 1-7) [SEQ ID NO: 172]
Result: 965 nM
--
Binder: Ac-[Pen][NMeR]SDDL[Pen][Phe(4-tBu)][β3hE][dK]-NH2 (disulfide 1-7; also: homodimer via IDA linker on D-Lys10 side chains, Alexa-647 label) [SEQ ID NO: 193]
Result: > 100000 nM
--
Binder: Ac-[Pen][NMeR]SDTL[Pen]W[dE][dK]-NH2 (disulfide 1-7; not fully specified (residue 10); printed as (Ac Pen N-Me-R S D T L Pen W e k NH2)2 DIG, disulfide Pen-Pen; also: homodimer via DIG linker) [SEQ ID NO: 68]
Result: > 25 nM
--
Binder: Ac-[Pen][NMeR]SDTL[Pen][Phe(4-tBu)][β3hE]-OH (disulfide 1-7; SMILES CC(=O)N[C@@H]1C(=O)N(C)[C@@H](CCCNC(=N)N)C(=O)N[C@@H](CO)C(=O)N[C@@H](CC(=O)O)C(=O)N[C@@H]([C@@H](C)O)C(=O)N[C@@H](CC(C)C)C(=O)N[C@H](C(=O)N[C@@H](Cc2ccc(C(C)(C)C)cc2)C(=O)N[C@@H](CCC(=O)O)CC(=O)O)C(C)(C)SSC1(C)C) [SEQ ID NO: 152]
Result: ≤ 10 nM
--
Binder: Ac-[Pen][NMeR]SDTL[Pen][Phe(4-tBu)][dE][dK]-NH2 (disulfide 1-7; not fully specified (residue 10); printed as (Ac Pen N-Me-R S D T L Pen F(4tBu) e k NH2)2 DIG, disulfide Pen-Pen; also: homodimer: two subunits joined by DIG linker) [SEQ ID NO: 106]
Result: ≤ 10 nM
